Experiment: SRA737 plasma and tumor concentrations in HT29 xenograft model
Assay type: in vivo
Conditions: mouse, plasma, oral; mice; PK/PD benchmark
Recorded Endpoint: concentration at 24 h

Lookup: Request the reported concentration at 24 h associated with N#Cc1cnc(Nc2cc(NCC3CNCCO3)c(C(F)(F)F)cn2)cn1 (stereo not shown)
Found: > 100 nM

====

Assay: SRA737 plasma and tumor concentrations in HT29 xenograft model
Format: in vivo
Details: mouse, plasma, oral; HT29 xenograft; Dose 25 mg/kg; read-out: Plasma (6 h)
Description: For each dose, columns from left to right are concentrations in plasma at 6 hours, plasma at 24 hours, tumor at 6 hours, and tumor at 24 hours, respectively. The effect of SRA737 on Gemcitabine induced Chk1 S296 autophosphorylation was assessed as described in Walton et al. (Oncotarget. 2016 Jan. 19; 7(3): 2329-2342), herein incorporated by reference for all it teaches. […]
Recorded Endpoint: concentration at 6 h

Lookup: Request the reported concentration at 6 h associated with N#Cc1cnc(Nc2cc(NCC3CNCCO3)c(C(F)(F)F)cn2)cn1 (stereo not shown)
Found: 2520 nM
